Below, each of the compounds is paired with its reported melting point value.
readout: melting point

O=c1cc(-c2ccncc2)nc2n1CCC(c1ccccc1)N2CC(O)c1ccc(-c2ccccc2)cc1 (stereo not drawn) [compound 27]: 145 to 147 °C
O=c1cc(-c2ccncc2)nc2n1CCC(c1ccncc1)N2CC(O)c1cccc(F)c1 (stereo not drawn) [compound 25]: 218 to 220 °C
O=c1cc(-c2ccncc2)nc2n1CCC(c1ccccc1)N2CC(O)c1ccc(F)cc1 (stereo not drawn) [compound 26]: 201 to 203 °C
O=c1cc(-c2ccncc2)nc2n1CCC(c1ccccc1)N2CC(O)c1ccc(Cl)cc1 (stereo not drawn) [compound 24]: 220 to 222 °C
O=c1cc(-c2ccncc2)nc2n1CCC(c1ccccc1)N2CC(O)c1cccc(Br)c1 (stereo not drawn) [compound 23]: 170 to 172 °C
O=c1cc(-c2ccncc2)nc2n1CCC(c1ccccc1)N2CC(O)c1ccc2ccccc2c1 (stereo not drawn) [compound 28]: 190 to 192 °C
